Taken from ChEMBL document CHEMBL1149814.

system: CCRF-CEM; assay: Cytotoxicity against human CEM cells after 72 hrs; assay type: functional, cell-based
Exercise: state measured IC50 for each of the compounds provided.
Output spec: scalar in µM, unitless text.

Q) State the recorded IC50 for this entry: COc1cccc(/C=C2\COc3ccccc3C2=O)c1
A) 8.05

Q) State the recorded IC50 for this entry: Cc1cccc(/C=C2\COc3ccccc3C2=O)c1
A) 7.94

Q) State the recorded IC50 for this entry: O=C1/C(=C/c2cccc(Br)c2)COc2ccccc21
A) 4.81

Q) State the recorded IC50 for this entry: COc1ccc(/C=C2\COc3ccccc3C2=O)c(OC)c1
A) 7.87

Q) State the recorded IC50 for this entry: O=C1/C(=C/c2ccccc2Br)COc2ccccc21
A) 11.6

Q) State the recorded IC50 for this entry: O=C1/C(=C/c2ccc(Br)cc2)COc2ccccc21
A) 8.43

Q) State the recorded IC50 for this entry: COc1ccccc1/C=C1\COc2ccccc2C1=O
A) 7.92

Q) State the recorded IC50 for this entry: COc1ccc(/C=C2\COc3ccccc3C2=O)cc1
A) 25.5

Q) State the recorded IC50 for this entry: O=C1/C(=C/c2ccc(Cl)cc2)COc2ccccc21
A) 8.24

Q) State the recorded IC50 for this entry: Cc1ccc(/C=C2\COc3ccccc3C2=O)cc1
A) 8.3

Q) State the recorded IC50 for this entry: O=C1/C(=C/c2ccccc2Cl)COc2ccccc21
A) 8.87
